Test system: MDR1
Experiment: in vitro
Settings: dog, MDCK-MDR1
measured.metric: Papp B→A (×10⁻⁶ cm/s)
Kindly provide the numeric value in ×10⁻⁶ cm/s only, without the unit symbol.

Lookup: Using the record for Cc1nc(Nc2ncc(C(=O)Nc3c(Cl)ccnc3C)s2)cc(N2CCN(CCO)CC2)n1 [Compound B3] , report its Papp B→A.
Found: 20

###

Test: in vitro
Settings: dog, MDCK
measured.metric: Papp A→B (×10⁻⁶ cm/s)
Hi! Could you send only the number? It should be in ×10⁻⁶ cm/s, unit omitted.

Lookup: # lookup: Papp A→B of Cc1nc(Nc2ncc(C(=O)Nc3c(Cl)ccnc3C)s2)cc(N2CCN(CCO)CC2)n1
Found: 6.8
